Source listed as PubChem BioAssay AID1508600.

Measurement Protocol: Components of the Cytosolic LPS Sensing Pathway: Gene Identification via Genome-wide siRNA Screen;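 also: robust z of the log signal after scaling to non-targeting control siRNA wells of the plate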
Particulars: RAW264.7 macrophages, IL-1a HTRF, actives lie on both sides, screened at 100 nM (by protocol), cells primed 5 h with Pam3CSK4 first
Description: Non-canonical inflammasome activation by cytosolic LPS is a critical component of the host response to Gram-negative bacterial infection, however we lack a comprehensive understanding of the cellular processes that control this pathway. […] Lipofectamine RNAiMAX Transfection Reagent ([…]; Invitrogen) was added in […] serum-free, antibiotic-free media to plate wells using a Thermo Scientific Matrix WellMate and Microplate Stacker. […] The plates were read on an EnVision plate reader (PerkinElmer). […]
About 3,700 (7%) of roughly 53,000 sequences were called active. The entries come from a sample that favours actives as a whole.

[
  {
    "Construct Sequence": "GGACUGGUUCAUCCUUGUGTT against G6pc",
    "z-score": 0.922
  },
  {
    "Construct Sequence": "CGAAGCACAUAUCUUUGAUTT against Zfp41",
    "z-score": 0.444
  },
  {
    "Construct Sequence": "GUUGUCCAUAUCAUGUUUGTT against Olfr569",
    "z-score": 1.28
  },
  {
    "Construct Sequence": "GCUGCACGAUGCAUGGUUUTT against Asic3",
    "z-score": 1.43
  },
  {
    "Construct Sequence": "CCGUCAAAACAUUACCAUUTT against Hmcn2",
    "z-score": -0.363
  },
  {
    "Construct Sequence": "CCAGAAGAACAAGGAAGUATT against Gm6460",
    "z-score": -0.914
  },
  {
    "Construct Sequence": "GGAAGAGCAUAAAAUGUCATT against Trps1",
    "z-score": -0.695
  },
  {
    "Construct Sequence": "GGAAACGAGUUGGAGACAATT against Gtpbp1",
    "z-score": -1.03
  },
  {
    "Construct Sequence": "GGAUGUCCUUGACUUUAAATT against Atp6v0a4",
    "z-score": 0.704
  },
  {
    "Construct Sequence": "GGAGACCUCAGCUGAUAUUTT against Tmem109",
    "z-score": 0.51
  },
  {
    "Construct Sequence": "GGCUGAACAAGAGAAACCATT against Ppdpf",
    "z-score": -2.49
  },
  {
    "Construct Sequence": "GCUGAUUGCCUCGGAGAAUTT against Shmt1",
    "z-score": -0.0766
  }
]
